Target: TBK1 (Homo sapiens)
Construct: host or cells: RA1-ISRE beta-lactamase reporter cells
Assay: Inhibition of TBK1 in Cells (TLR3 driven ISRE β-lactamase reporter assay)
Assay type: cell-based
Conditions: poly IC-LMW stimulation 16 hrs; -log(EC50), EC50 molar; read-out: Inhibition of TBK1 in cells pEC50 (EC) (converted)
Readout Name: EC50 (µM)

C[C@@H](NC(=O)c1cc(-c2ccc3nc(NC(=O)C4CC4)cn3c2)n[nH]1)C(F)(F)F [Example 104]    0.166
O=C(NCC(F)(F)F)c1ccn(-c2ccc3nc(NC(=O)C4CC4)cn3c2)n1 [Example 34]    0.513
Cc1sc(C(=O)NCC(F)(F)F)cc1-c1cn2cc(NC(=O)C3CC3)nc2cn1 [Example 30]    6.46

P. O=C(Nc1cn2cc(-c3csc(C(=O)N4CCC[C@H]4C(F)(F)F)c3)ccc2n1)C1CC1 [Example 61]
Q. CC(C)(NC(=O)c1cc(-c2ccc3nc(NC(=O)C4CC4)cn3c2)cs1)C(F)(F)F [Example 56]
Prompt line: // returns P or Q , whichever has the lower EC50 State your choice using its label.
Response line: Q

a. O=C(Nc1cn2cc(-c3csc(C(=O)N4CC(O)C4)n3)ccc2n1)C1CC1 [Example 113]
b. O=C(N[C@H]1CCCC[C@H]1O)c1cc(-c2ccc3nc(NC(=O)C4CC4)cn3c2)cs1 [Example 76]
c. O=C(Nc1cn2cc(-c3csc(C(=O)N4CCC(O)C4)n3)ccc2n1)C1CC1 (centres unmarked) [Example 112]
Prompt line: Could you please sort these 3 entries by EC50 from high to low? Could you list the labels in the order requested?
Response line: c, a, b

---

Molecular target: Full length human TBK1 (Homo sapiens, UniProt Q9UHD2)
Construct: Full length human TBK1 with an N-terminal His-tag; His-tag (N); made in house; host or cells: Sf9 insect cells (baculovirus, pFastBac1)
Test: Inhibition of TBK1 Enzyme (Caliper microfluidic assay)
Format: biochemical
Details: 25 μM ATP, 60 min at RT; -log(IC50), IC50 molar; read-out: TBK1 Inhibition (pIC50) (converted)
Readout Name: IC50 (µM)

Solved entries:
O=C(NCC(F)(F)F)c1ccn(-c2ccc3nc(NC(=O)C4CC4)cn3n2)n1 [Example 39]    0.251
O=C(N[C@H]1CCCC[C@H]1O)c1cc(-c2ccc3nc(NC(=O)C4CC4)cn3c2)cs1 [Example 76]    0.0158
O=C(NCC(F)F)c1ccn(-c2ccc3nc(NC(=O)C4CC4)cn3c2)n1 [Example 35]    0.0794
O=C(NCC(F)(F)F)c1cc(-c2ccc3nc(NC(=O)C4CC4)cn3c2)sn1 [Example 26]    0.0794
O=C(NC1COCC1O)c1cc(-c2ccc3nc(NC(=O)C4CC4)cn3c2)cs1 (centres unmarked) [Example 84]    0.0316

P. O=C(NCC(F)F)c1nc(-c2ccc3nc(NC(=O)C4CC4)cn3c2)c[nH]1 [Example 12]
Q. O=C(Nc1cn2cc(-c3csc(C(=O)N4CCC(CO)C4)n3)ccc2n1)C1CC1 (centres unmarked) [Example 100]
R. C[C@@H](NC(=O)c1cc(-c2ccc3nc(NC(=O)C4CC4)cn3c2)cs1)C(F)(F)F [Example 81]
Prompt line: Could you please sort these 3 entries by IC50 from high to low? Could you list the labels in the order requested?
Response line: Q, P, R

---

Molecular target: Full length human TBK1 (Homo sapiens, UniProt Q9UHD2)
Construct: Full length human TBK1 with an N-terminal His-tag; His-tag (N); made in house; host or cells: Sf9 insect cells (baculovirus, pFastBac1)
Assay: Inhibition of TBK1 Enzyme (Caliper microfluidic assay)
Type: biochemical
Conditions: 25 μM ATP, 60 min at RT; -log(IC50), IC50 molar; read-out: TBK1 Inhibition (pIC50) (converted)
Readout Name: IC50 (nM)

Solved entries:
CC(F)(F)CNC(=O)c1cc(-c2ccc3nc(NC(=O)C4CC4)cn3c2)cs1 [Example 57]    10
NC(=O)C1CCN(C(=O)c2nc(-c3ccc4nc(NC(=O)C5CC5)cn4c3)cs2)C1 (centres unmarked) [Example 98]    200
O=C(NCC(F)F)c1cc(-c2ccc3nc(NC(=O)C4CC4)cn3n2)cs1 [Example 18]    10
CC(C)(NC(=O)c1cc(-c2ccc3nc(NC(=O)C4CC4)cn3c2)cs1)C(F)(F)F [Example 56]    25.1
O=C(N[C@H]1CCCOC1)c1cc(-c2ccc3nc(NC(=O)C4CC4)cn3c2)cs1 [Example 68]    10

A. Cc1sc(C(=O)NCC(F)(F)F)cc1-c1ccc2nc(NC(=O)C3CC3)cn2n1 [Example 23]
B. O=C(N[C@H]1CCOC1)c1cc(-c2ccc3nc(NC(=O)C4CC4)cn3c2)cs1 [Example 72]
Prompt line: // compare measured IC50, left A , right B , return larger State your choice using its label.
Response line: A
(A: 79.4 nM, B: 12.6 nM)

---

Molecular target: Full length human TBK1 (Homo sapiens)
Construct: Full length human TBK1 with an N-terminal His-tag; His-tag (N); made in house; host or cells: Sf9 insect cells (baculovirus, pFastBac1)
Test: Inhibition of TBK1 Enzyme (Caliper microfluidic assay)
Type: biochemical
Settings: 25 μM ATP, 60 min at RT; -log(IC50), IC50 molar; read-out: TBK1 Inhibition (pIC50) (converted)
Readout Name: IC50 (nM)

O=C(NCC(F)F)c1nc(-c2ccc3nc(NC(=O)C4CC4)cn3c2)cs1    15.8
O=C(NCC(F)(F)F)c1nc(-c2cn3cc(NC(=O)C4CC4)nc3cn2)cs1    7.94
O=C(Nc1cn2cc(-c3csc(C(=O)N4CCC(F)(F)C4)c3)ccc2n1)C1CC1    31.6
CC(NC(=O)c1cc(-c2ccc3nc(NC(=O)C4CC4)cn3c2)cs1)C(F)(F)F (centres unmarked)    20

1. O=C(NCC(F)(F)F)c1ncc(-c2ccc3nc(NC(=O)C4CC4)cn3c2)[nH]1
2. O=C(NC1CCCC1=O)c1cc(-c2ccc3nc(NC(=O)C4CC4)cn3c2)cs1 (centres unmarked)
3. N[C@@H]1CCCC(F)(F)[C@@H]1NC(=O)c1cc(-c2ccc3nc(NC(=O)C4CC4)cn3c2)cs1
Prompt line: Let's sort these by IC50, smallest first. Go ahead? Could you list the labels in the order requested?
Response line: 3, 1, 2
(3: 6.31 nM, 1: 12.6 nM, 2: 100 nM)

---

Molecular target: TBK1 (Homo sapiens)
Construct: host or cells: RA1-ISRE beta-lactamase reporter cells
Assay: Inhibition of TBK1 in Cells (TLR3 driven ISRE β-lactamase reporter assay)
Assay type: cell-based
Details: poly IC-LMW stimulation 16 hrs; -log(EC50), EC50 molar; read-out: Inhibition of TBK1 in cells pEC50 (EC) (converted)
Readout Name: EC50 (nM)

Solved entries:
O=C(Nc1cn2cc(-c3csc(C(=O)N(CCO)CC(F)(F)F)c3)ccc2n1)C1CC1 [Example 120]    851
N#CC1CN(C(=O)c2nc(-c3ccc4nc(NC(=O)C5CC5)cn4c3)cs2)C1 [Example 102]    776
CN(CC(F)(F)F)C(=O)c1cc(-c2ccc3nc(NC(=O)C4CC4)cn3c2)cs1 [Example 28]    676
CN(CC(F)(F)F)C(=O)c1cc(-c2ccc3nc(NC(=O)C4CC4)cn3c2)n[nH]1 [Example 106]    589

I. Cn1nc(-c2ccc3nc(NC(=O)C4CC4)cn3c2)cc1C(=O)NCC(F)F [Example 2]
II. CC1CCN(C(=O)c2nc(-c3ccc4nc(NC(=O)C5CC5)cn4c3)cs2)C1 (centres unmarked) [Example 103]
III. O=C(Nc1cn2cc(-c3csc(C(=O)N4CCCC4C(F)(F)F)c3)ccc2n1)C1CC1 (centres unmarked) [Example 60]
IV. C[C@@H](NC(=O)c1cn(-c2ccc3nc(NC(=O)C4CC4)cn3c2)cn1)C(F)(F)F [Example 43]
Prompt line: Let's sort these by EC50, smallest first. Go ahead? Could you list the labels in the order requested?
Response line: III, II, IV, I

---

Biological target: TBK1 (Homo sapiens)
Construct: host or cells: RA1-ISRE beta-lactamase reporter cells
Sequence (Q9UHD2 1-729): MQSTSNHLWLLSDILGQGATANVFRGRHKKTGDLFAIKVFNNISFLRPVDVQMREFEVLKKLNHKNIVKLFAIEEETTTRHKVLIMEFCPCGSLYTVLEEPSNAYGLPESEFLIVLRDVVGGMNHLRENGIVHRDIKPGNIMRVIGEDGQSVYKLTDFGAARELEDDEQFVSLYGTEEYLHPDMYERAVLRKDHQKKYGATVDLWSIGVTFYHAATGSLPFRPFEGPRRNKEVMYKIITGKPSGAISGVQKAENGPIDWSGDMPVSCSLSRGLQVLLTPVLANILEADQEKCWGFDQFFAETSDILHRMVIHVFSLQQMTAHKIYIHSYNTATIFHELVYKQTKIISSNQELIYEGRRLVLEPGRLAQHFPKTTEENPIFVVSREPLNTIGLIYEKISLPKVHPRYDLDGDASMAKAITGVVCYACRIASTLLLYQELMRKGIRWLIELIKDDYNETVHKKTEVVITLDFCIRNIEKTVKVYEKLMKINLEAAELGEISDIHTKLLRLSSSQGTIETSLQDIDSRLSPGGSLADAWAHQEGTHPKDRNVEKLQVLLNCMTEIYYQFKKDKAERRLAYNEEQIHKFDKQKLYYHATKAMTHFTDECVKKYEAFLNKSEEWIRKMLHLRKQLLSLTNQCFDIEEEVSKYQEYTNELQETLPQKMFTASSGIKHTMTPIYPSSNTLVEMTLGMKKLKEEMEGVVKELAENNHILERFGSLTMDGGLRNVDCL
Assay: Inhibition of TBK1 in Cells (TLR3 driven ISRE β-lactamase reporter assay)
Type: cell-based
Details: poly IC-LMW stimulation 16 hrs; -log(EC50), EC50 molar; read-out: Inhibition of TBK1 in cells pEC50 (EC) (converted)
Readout Name: EC50 (nM)

Solved entries:
O=C(NC1COC1)c1nc(-c2ccc3nc(NC(=O)C4CC4)cn3c2)cs1    3720
CC1CCCN1C(=O)c1cc(-c2ccc3nc(NC(=O)C4CC4)cn3c2)n[nH]1 (centres unmarked)    2190
O=C(NCC(F)(F)F)c1cc(-c2ccc3nc(NC(=O)C4CC4)cn3n2)cs1    214
O=C(NC1CCCC1(F)F)c1nc(-c2ccc3nc(NC(=O)C4CC4)cn3c2)cs1 (centres unmarked)    1020
O=C(NCC(F)F)c1cc(-c2ccc3nc(NC(=O)C4CC4)cn3n2)cs1    251

A. O=C(NCC(F)(F)F)c1nc(-c2cn3cc(NC(=O)C4CC4)nc3cn2)cs1
B. O=C(NC1CCCC1=O)c1cc(-c2ccc3nc(NC(=O)C4CC4)cn3c2)cs1 (centres unmarked)
C. Cn1nc(-c2ccc3nc(NC(=O)C4CC4)cn3c2)cc1C(=O)NCC(F)(F)F
D. O=C(Nc1cn2cc(-c3csc(C(=O)N4CCOCC4)c3)ccc2n1)C1CC1
E. N[C@@H]1CCCC(F)(F)[C@@H]1NC(=O)c1cc(-c2ccc3nc(NC(=O)C4CC4)cn3c2)cs1
Prompt line: Let's sort these by EC50, smallest first. Go ahead? Could you list the labels in the order requested?
Response line: E, A, B, C, D
(E: 19.1 nM, A: 355 nM, B: 4070 nM, C: 8320 nM, D: 20000 nM)

P. O=C(NCCC(F)(F)F)c1cc(-c2ccc3nc(NC(=O)C4CC4)cn3c2)cs1
Q. O=C(NC1COCC1O)c1nc(-c2ccc3nc(NC(=O)C4CC4)cn3c2)cs1 (centres unmarked)
Prompt line: // returns P or Q , whichever has the lower EC50 State your choice using its label.
Response line: P
(P: 479 nM, Q: 3240 nM)

A. NC(=O)C1CCN(C(=O)c2nc(-c3ccc4nc(NC(=O)C5CC5)cn4c3)cs2)C1 (centres unmarked)
B. O=C(N[C@H]1CCOC1)c1cc(-c2ccc3nc(NC(=O)C4CC4)cn3c2)cs1
Prompt line: // compare measured EC50, left A , right B , return larger State your choice using its label.
Response line: A
